B1: TPR t1 (parent)
chain: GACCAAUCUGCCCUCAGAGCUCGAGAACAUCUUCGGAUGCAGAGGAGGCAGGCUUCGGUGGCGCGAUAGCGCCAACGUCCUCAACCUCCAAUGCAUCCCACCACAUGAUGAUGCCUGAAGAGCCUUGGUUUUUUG

variants of: B1; assay: polymerase ribozyme fitness, log enrichment relative to wild type (log ratio); higher = more active; in vitro selection for triplet polymerase activity
Observation type: polymerase ribozyme fitness (log ratio)
Please give only the number in your answer, with no unit.

Incoming: Quick check: polymerase ribozyme fitness (log ratio) of C88G C89A ?
Outgoing: -1.75

Incoming: And then C40U A95G , what is it?
Outgoing: -1.37

Incoming: Please answer likewise for G57U A119U G120U
Outgoing: -0.267

Incoming: Next variant up: C4A G60A U78C
Outgoing: -2.08

Incoming: Check A46U C56G U78C G93C G120U too.
Outgoing: -3.59

Incoming: Would you kindly repeat that for C40A G71A ?
Outgoing: -2

Incoming: Then what about the variant C13U C82U ?
Outgoing: -0.268

Incoming: Check G44A C56U C72U too.
Outgoing: -2.35

Incoming: Lookup A29U A43U
Outgoing: -3.3

Incoming: Then what about the variant G51A G57C U59C U96G U106A A118G ?
Outgoing: -5.28

Incoming: Further, for A16G U32A A50C C88U C123G U125A ?
Outgoing: -3.77

Incoming: Further, for C11A C94A U116A G120C ?
Outgoing: -0.809

Incoming: Item: C12G C40U C97U
Outgoing: -1.01

Incoming: Then G60A U106G ?
Outgoing: -0.897
